The measurements presented in this section are drawn from ChEMBL document CHEMBL1124009.

Would you mind telling me the reported pIC50 of each entry?
Would you please state pIC50, meaning minus log10 of the concentration in mol/L, as a bare number?

-- ask State measured pIC50 of the compound "C[C@@H](O)[C@H](NC(=O)[C@H]1NC(=O)[C@H]([C@@H](C)O)NC(=O)[C@H](CCCN=C(N)N)NC(=O)[C@@H](Cc2c[nH]c3ccccc23)NC(=O)[C@H](Cc2ccc(O)cc2)NC(=O)[C@@H](NC(=O)[C@H](N)Cc2ccccc2)CSSC1(C)C)C(N)=O" with Mu-type opioid receptor (Rattus norvegicus).
Sequence (P33535 whole entry): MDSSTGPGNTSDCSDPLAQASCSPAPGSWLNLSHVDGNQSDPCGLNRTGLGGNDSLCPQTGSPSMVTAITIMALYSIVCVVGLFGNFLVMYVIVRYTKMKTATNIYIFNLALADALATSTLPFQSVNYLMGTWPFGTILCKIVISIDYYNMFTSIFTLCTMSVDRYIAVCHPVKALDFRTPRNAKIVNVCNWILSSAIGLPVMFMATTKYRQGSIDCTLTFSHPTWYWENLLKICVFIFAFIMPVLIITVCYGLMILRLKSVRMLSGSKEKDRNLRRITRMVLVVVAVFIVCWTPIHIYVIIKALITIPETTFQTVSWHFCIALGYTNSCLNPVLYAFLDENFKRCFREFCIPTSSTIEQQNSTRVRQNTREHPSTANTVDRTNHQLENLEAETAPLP
-- reply 8.68

-- ask State measured pIC50 of the compound C[C@@H](O)[C@@H]1NC(=O)[C@H](CCCCN)NC(=O)C(Cc2c[nH]c3ccccc23)NC(=O)[C@H](Cc2ccc(O)cc2)NC(=O)[C@@H](NC(=O)[C@H](N)Cc2ccccc2)CSSC(C)(C)[C@@H](C(=O)N[C@@H](CO)C(N)=O)NC1=O (stereo in doubt) with Mu-type opioid receptor (Rattus norvegicus).
-- reply 7.70

-- ask State measured pIC50 of the compound C[C@@H](O)[C@@H]1NC(=O)[C@H](CCCN)NC(=O)C(Cc2c[nH]c3ccccc23)NC(=O)[C@H](Cc2ccc(O)cc2)NC(=O)[C@@H](NC(=O)[C@H](N)Cc2ccccc2)CSSC(C)(C)[C@@H](C(N)=O)NC1=O (stereo in doubt) with Mu-type opioid receptor (Rattus norvegicus).
-- reply 6.73

-- ask State measured pIC50 of the compound C[C@@H](O)[C@H](NC(=O)[C@H]1NC(=O)[C@H]([C@@H](C)O)NC(=O)[C@H](CCCCN)NC(=O)C(Cc2c[nH]c3ccccc23)NC(=O)[C@@H](Cc2ccc(O)cc2)NC(=O)[C@@H](NC(=O)[C@H]2Cc3ccccc3CN2)CSSC1(C)C)C(N)=O (stereo in doubt) with Mu-type opioid receptor (Rattus norvegicus).
-- reply 8.92
